# assayedTarget: human recombinant CHRM3 receptor (Homo sapiens)
# Sequence (P20309 whole entry): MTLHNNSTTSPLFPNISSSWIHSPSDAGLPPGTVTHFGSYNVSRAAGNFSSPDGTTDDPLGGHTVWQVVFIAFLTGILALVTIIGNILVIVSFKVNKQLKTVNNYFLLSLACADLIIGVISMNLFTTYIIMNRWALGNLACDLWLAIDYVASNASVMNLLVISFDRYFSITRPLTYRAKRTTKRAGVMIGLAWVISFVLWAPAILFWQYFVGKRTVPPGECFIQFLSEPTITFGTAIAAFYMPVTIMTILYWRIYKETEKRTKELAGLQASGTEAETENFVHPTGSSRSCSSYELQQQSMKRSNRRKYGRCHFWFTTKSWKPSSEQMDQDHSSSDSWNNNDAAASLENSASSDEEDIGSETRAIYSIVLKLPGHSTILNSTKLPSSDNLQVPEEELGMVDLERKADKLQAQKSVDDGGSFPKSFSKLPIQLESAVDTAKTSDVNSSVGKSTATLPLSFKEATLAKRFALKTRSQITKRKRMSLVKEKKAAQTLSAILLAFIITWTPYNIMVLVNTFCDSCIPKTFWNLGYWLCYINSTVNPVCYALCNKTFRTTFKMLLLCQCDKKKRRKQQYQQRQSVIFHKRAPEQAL
# protocolDetails: Radioligand binding assay, CHRM3
# cond: [3H]4-DAMP (0.2 nM), CHO cell membranes, 60 minutes at room temperature; read-out: Ki M3
Checkbox rule: Ki lower than 600 nM = met; Ki not lower than 600 nM = not met.

The following compounds have reported results that may help.
| compound | assayedTarget | label |
| --- | --- | --- |
| CCOC(=O)c1c(C)n(C)c2ccc(OC)c(C[N+]3(C)CCc4cc(OC)ccc4C3)c12.[I-] (stereo not shown) | human recombinant CHRM3 receptor (Homo sapiens) | met |
| CCOC(=O)c1c(C)[nH]c2ccc3c(c12)CN1CCc2cc(OC)ccc2C1O3 (stereo not shown) [PD102807, reference compound] | human recombinant CHRM3 receptor (Homo sapiens) | met |
| CCOC(=O)c1c(C)n(C)c2ccc(OC)c(CN3CCc4cc(OC)ccc4C3)c12 | human recombinant CHRM3 receptor (Homo sapiens) | not met |

Exercise: Input CCOC(=O)c1c(C)n(C)c2cc(C[N+]3(C)CCc4cc(OC)ccc4C3)c(OC)cc12 (stereo not shown) ; condition: Ki strictly below 600 nM. Does it hold?
Key: met

Exercise: Input `CCOC(=O)c1c(C)n(C)c2cc(CN3CCc4cc(OC)ccc4C3)c(OC)cc12` ; condition: Ki strictly below 600 nM. Does it hold?
Key: not met

Exercise: Input `CCOC(=O)c1c(C)n(C)c2ccc(O)c(CN3CCc4cc(OC)ccc4C3)c12` ; condition: Ki strictly below 600 nM. Does it hold?
Key: not met

* * *

# assayedTarget: human recombinant CHRM2 receptor (Homo sapiens)
# Sequence (P08172 whole entry): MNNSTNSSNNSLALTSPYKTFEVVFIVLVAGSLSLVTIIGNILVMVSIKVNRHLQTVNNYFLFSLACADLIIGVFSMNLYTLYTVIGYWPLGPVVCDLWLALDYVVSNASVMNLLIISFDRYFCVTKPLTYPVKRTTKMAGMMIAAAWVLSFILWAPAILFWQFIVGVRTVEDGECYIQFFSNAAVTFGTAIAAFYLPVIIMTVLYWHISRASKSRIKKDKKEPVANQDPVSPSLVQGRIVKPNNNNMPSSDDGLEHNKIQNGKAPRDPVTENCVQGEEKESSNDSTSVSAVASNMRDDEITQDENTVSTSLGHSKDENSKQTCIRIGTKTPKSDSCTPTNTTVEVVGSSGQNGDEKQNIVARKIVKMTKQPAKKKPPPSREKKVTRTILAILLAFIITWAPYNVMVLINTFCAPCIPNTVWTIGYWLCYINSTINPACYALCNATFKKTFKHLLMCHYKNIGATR
# protocolDetails: Radioligand binding assay, CHRM2
# cond: [3H]AF-DX 384 (2 nM), CHO cell membranes, 60 minutes at room temperature; read-out: Ki M2
Grouping rule (Ki): c1 = under 0.8 µM, c2 = from 0.8 µM up to 2 µM, c3 = 2 µM and over

| compound | label |
| --- | --- |
| CCOC(=O)c1c(C)n(C)c2cc(C[N+]3(C)CCc4cc(OC)ccc4C3)c(OC)cc12 (stereo not shown) [Compound K] | c1 |
| CCOC(=O)c1c(C)[nH]c2ccc3c(c12)C[N+]1(C)CCc2cc(OC)ccc2C1O3 (single isomer, unassigned) [Compound A] | c3 |
| CCOC(=O)c1c(C)[nH]c2ccc(OC)c(CN3CCc4cc(OC)ccc4C3)c12 [Compound E] | c3 |
| CCOC(=O)c1c(C)[nH]c2ccc3c(c12)CN1CCc2cc(OC)ccc2C1O3 (stereo not shown) [PD102807, reference compound] | c3 |
| CCOC(=O)c1c(C)n(C)c2ccc3c(c12)CN1CCc2cc(OC)ccc2C1O3 (stereo not shown) [Compound C] | c2 |
| CCOC(=O)c1c(C)n(C)c2ccc(O)c(CN3CCc4cc(OC)ccc4C3)c12 [Compound D] | c1 |

Exercise: Band for CCOC(=O)c1c(C)n(C)c2ccc(OC)c(C[N+]3(C)CCc4cc(OC)ccc4C3)c12.[I-] (stereo not shown) [Compound G] ?
Key: c1

Exercise: Band for CCOC(=O)c1c(C)n(C)c2ccc(OC)c(CN3CCc4cc(OC)ccc4C3)c12 [F] ?
Key: c3

Exercise: Band for CCOC(=O)c1c(C)n(C)c2cc(CN3CCc4cc(OC)ccc4C3)c(OC)cc12 [J] ?
Key: c1

Exercise: Band for CCOC(=O)c1c(C)n(C)c2ccc3c(c12)C[N+]1(C)CCc2cc(OC)ccc2C1O3 (single isomer, unassigned) [Compound I] ?
Key: c2

* * *

The entries below are paired with their reported pKi.
# assayedTarget: CHRM4 (Homo sapiens, UniProt P08173)
# Sequence (P08173 whole entry): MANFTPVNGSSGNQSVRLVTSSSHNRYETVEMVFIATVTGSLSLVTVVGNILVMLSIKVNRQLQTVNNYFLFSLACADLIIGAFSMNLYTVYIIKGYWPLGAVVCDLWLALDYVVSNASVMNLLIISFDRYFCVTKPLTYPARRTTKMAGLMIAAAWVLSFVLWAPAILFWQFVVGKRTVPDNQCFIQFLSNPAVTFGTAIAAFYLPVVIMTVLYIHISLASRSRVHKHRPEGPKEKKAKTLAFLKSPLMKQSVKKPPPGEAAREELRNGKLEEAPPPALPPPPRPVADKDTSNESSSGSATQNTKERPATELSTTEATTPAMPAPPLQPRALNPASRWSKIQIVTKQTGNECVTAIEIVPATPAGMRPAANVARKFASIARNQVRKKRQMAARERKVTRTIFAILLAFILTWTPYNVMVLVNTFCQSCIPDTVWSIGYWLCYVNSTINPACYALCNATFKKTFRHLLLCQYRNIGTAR
# protocolDetails: Radioligand binding assay, CHRM4
# Set-up: expressed in transfected cells; host or cells: CHO cells (membranes)
# cond: [3H]4-DAMP (0.2 nM), CHO cell membranes, 60 minutes at room temperature; read-out: Ki M4
By convention, pKi is the negative base-10 log of a molar concentration.

Study these solved cases before continuing.
| molecule | assayedTarget | assayValue |
| --- | --- | --- |
| CCOC(=O)c1c(C)[nH]c2ccc3c(c12)CN1CCc2cc(OC)ccc2C1O3 (stereo not drawn) [PD102807, reference compound] | CHRM4 (Homo sapiens, UniProt P08173) | 8.29 |
| CCOC(=O)c1c(C)n(C)c2cc(CN3CCc4cc(OC)ccc4C3)c(OC)cc12 | CHRM4 (Homo sapiens, UniProt P08173) | 8.05 |

Consider the additional molecule presented here.
// field: pKi; key: CCOC(=O)c1c(C)n(C)c2ccc3c(c12)CN1CCc2cc(OC)ccc2C1O3 (stereo not drawn) ; value = 8.34

* * *

# assayedTarget: human recombinant CHRM1 receptor (Homo sapiens)
# protocolDetails: Radioligand binding assay, CHRM1
# cond: [3H]pirenzepine (2 nM), CHO cell membranes, 60 minutes at room temperature; read-out: Ki M1
Checkbox rule: Ki lower than 5 µM = 1; Ki not lower than 5 µM = -1.

| compound | label |
| --- | --- |
| CCOC(=O)c1c(C)n(C)c2ccc(OC)c(C[N+]3(C)CCc4cc(OC)ccc4C3)c12.[I-] (stereo not shown) | 1 |

Exercise: Input CCOC(=O)c1c(C)n(C)c2ccc3c(c12)C[N+]1(C)CCc2cc(OC)ccc2C1O3 (single isomer, unassigned) ; condition: Ki strictly below 5 µM. Does it hold?
Key: -1

Exercise: Input `CCOC(=O)c1c(C)n(C)c2cc(CN3CCc4cc(OC)ccc4C3)c(OC)cc12` ; condition: Ki strictly below 5 µM. Does it hold?
Key: 1

* * *

Let's go through some pKi measurements on CHRM4 (Homo sapiens) together.
By convention, pKi is the negative base-10 log of a molar concentration.

| compound | assayValue |
| --- | --- |
| CCOC(=O)c1c(C)n(C)c2ccc(OC)c(CN3CCc4cc(OC)ccc4C3)c12 [F] | 6.02 |

// field: pKi; key: CCOC(=O)c1c(C)[nH]c2ccc(OC)c(CN3CCc4cc(OC)ccc4C3)c12 [Compound E] ; value = 5.82

// field: pKi; key: CCOC(=O)c1c(C)[nH]c2ccc3c(c12)C[N+]1(C)CCc2cc(OC)ccc2C1O3 (single isomer, unassigned) [Compound A] ; value = 5.74

// field: pKi; key: CCOC(=O)c1c(C)n(C)c2ccc(O)c(CN3CCc4cc(OC)ccc4C3)c12 [Compound D] ; value = 7.38

* * *

# assayedTarget: human recombinant CHRM5 receptor (Homo sapiens, UniProt P08912)
# Sequence (P08912 1-532): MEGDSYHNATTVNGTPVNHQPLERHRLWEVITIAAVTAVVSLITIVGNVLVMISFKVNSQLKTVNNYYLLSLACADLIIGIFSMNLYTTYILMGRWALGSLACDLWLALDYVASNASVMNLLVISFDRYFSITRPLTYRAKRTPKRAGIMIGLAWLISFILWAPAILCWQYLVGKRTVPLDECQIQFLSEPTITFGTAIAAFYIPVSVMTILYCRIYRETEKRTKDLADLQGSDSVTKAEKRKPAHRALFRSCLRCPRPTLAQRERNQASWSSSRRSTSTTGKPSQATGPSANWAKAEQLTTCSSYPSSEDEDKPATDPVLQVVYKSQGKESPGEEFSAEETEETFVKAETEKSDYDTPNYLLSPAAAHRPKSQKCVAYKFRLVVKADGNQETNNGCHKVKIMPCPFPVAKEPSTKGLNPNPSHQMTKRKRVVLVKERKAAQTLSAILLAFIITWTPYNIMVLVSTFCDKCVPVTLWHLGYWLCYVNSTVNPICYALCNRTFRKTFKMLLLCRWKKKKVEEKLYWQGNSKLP
# protocolDetails: Radioligand binding assay, CHRM5
# cond: [3H]4-DAMP (0.3 nM), CHO cell membranes, 60 minutes at room temperature; read-out: Ki M5
testReadout: pKi
By convention, pKi is the negative base-10 log of a molar concentration.

Study these solved cases before continuing.
| compound | pKi |
| --- | --- |
| CCOC(=O)c1c(C)[nH]c2ccc3c(c12)C[N+]1(C)CCc2cc(OC)ccc2C1O3 (single isomer, unassigned) | 5.46 |
| CCOC(=O)c1c(C)n(C)c2ccc3c(c12)C[N+]1(C)CCc2cc(OC)ccc2C1O3 (single isomer, unassigned) | 5.00 |

Form field pKi for item CCOC(=O)c1c(C)n(C)c2cc(C[N+]3(C)CCc4cc(OC)ccc4C3)c(OC)cc12 (stereo not drawn) on human recombinant CHRM5 receptor (Homo sapiens, UniProt P08912): 6.01

* * *

# assayedTarget: human recombinant CHRM1 receptor (Homo sapiens, UniProt P11229)
# Construct: expressed in transfected cells; host or cells: CHO cells (membranes)
# Sequence (P11229 1-460): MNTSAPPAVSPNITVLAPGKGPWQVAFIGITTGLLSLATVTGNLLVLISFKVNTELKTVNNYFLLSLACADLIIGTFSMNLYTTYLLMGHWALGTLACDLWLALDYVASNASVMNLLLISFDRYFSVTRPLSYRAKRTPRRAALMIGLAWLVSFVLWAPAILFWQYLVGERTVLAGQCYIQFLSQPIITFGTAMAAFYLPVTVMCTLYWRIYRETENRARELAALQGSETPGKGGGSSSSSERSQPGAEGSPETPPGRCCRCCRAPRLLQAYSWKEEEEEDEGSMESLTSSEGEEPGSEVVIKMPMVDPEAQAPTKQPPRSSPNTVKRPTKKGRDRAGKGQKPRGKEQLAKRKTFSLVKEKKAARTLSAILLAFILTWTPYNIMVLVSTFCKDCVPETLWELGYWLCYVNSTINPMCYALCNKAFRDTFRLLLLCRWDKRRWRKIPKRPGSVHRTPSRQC
# protocolDetails: Radioligand binding assay, CHRM1
# cond: [3H]pirenzepine (2 nM), CHO cell membranes, 60 minutes at room temperature; read-out: Ki M1
testReadout: Ki (nM)
Your answer is read as nM, so omit the unit and give the number.

| molecule | assayValue |
| --- | --- |
| CCOC(=O)c1c(C)n(C)c2ccc3c(c12)CN1CCc2cc(OC)ccc2C1O3 (stereo not shown) | 5200 |
| CCOC(=O)c1c(C)n(C)c2cc(C[N+]3(C)CCc4cc(OC)ccc4C3)c(OC)cc12 (stereo not shown) | 54 |

// field: Ki; key: `CCOC(=O)c1c(C)[nH]c2ccc(OC)c(CN3CCc4cc(OC)ccc4C3)c12` ; value = 8500

// field: Ki; key: `CCOC(=O)c1c(C)n(C)c2ccc(O)c(CN3CCc4cc(OC)ccc4C3)c12` ; value = 280

Data origin, for the record: patent US12497411B2
